Give pKi for every item shown.
Would you please state pKi, meaning minus log10 of the concentration in mol/L, as a bare number?

Given `CCCN(CCO)CCCOc1ccc2c(Nc3cc(CC(=O)Nc4cccc(F)c4)[nH]n3)ncnc2c1` , report its pKi on Aurora kinase A (Homo sapiens, UniProt O14965).
Sequence (O14965 whole entry): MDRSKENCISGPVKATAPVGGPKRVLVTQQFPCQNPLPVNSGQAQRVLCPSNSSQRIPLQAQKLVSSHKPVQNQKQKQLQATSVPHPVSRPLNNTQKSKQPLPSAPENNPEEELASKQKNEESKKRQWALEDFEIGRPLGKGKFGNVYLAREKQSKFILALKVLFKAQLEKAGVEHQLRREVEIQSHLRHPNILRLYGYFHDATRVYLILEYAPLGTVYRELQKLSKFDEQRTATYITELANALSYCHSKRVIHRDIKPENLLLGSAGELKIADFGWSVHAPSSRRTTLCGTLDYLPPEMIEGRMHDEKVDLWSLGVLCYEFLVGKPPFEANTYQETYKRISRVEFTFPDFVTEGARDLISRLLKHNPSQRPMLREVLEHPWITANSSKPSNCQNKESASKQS
6.01

Given `CCN(CCO)CCCOc1ccc2c(Nc3cc(CC(=O)Nc4cccc(F)c4F)[nH]n3)ncnc2c1` , report its pKi on Aurora kinase A (Homo sapiens, UniProt O14965).
6.80

Given `COc1cc2c(Nc3cc(CC(=O)Nc4cccc(F)c4)[nH]n3)ncnc2cc1OCCCN(C)CCO` , report its pKi on Aurora kinase A (Homo sapiens, UniProt O14965).
7.19

Given `COc1cc2c(Nc3cc(CC(=O)Nc4cccc(F)c4F)[nH]n3)ncnc2cc1OCCCN1CCC(O)CC1` , report its pKi on Aurora kinase A (Homo sapiens, UniProt O14965).
6.66

Given `COc1cc2c(Nc3cc(CC(=O)Nc4cccc(F)c4F)[nH]n3)ncnc2cc1OCCCN(CCO)CC(C)C` , report its pKi on Aurora kinase A (Homo sapiens, UniProt O14965).
7.74

====

- procedure.details: aqueous solubility
- Type: physicochemical
- condition.context: read-out: S
measurement.name: solubility

Please list solubility recorded for the molecule `COc1cc2c(Nc3ncc(CC(=O)Nc4cccc(F)c4)s3)ncnc2cc1OCCCN1CCC(COP(=O)(O)O)CC1`
> 10000 µg/mL

====

- tested.system: SW-620
Give pKi for every item shown.
Would you please state pKi, meaning minus log10 of the concentration in mol/L, as a bare number?

Please list pKi recorded for the compound `COc1cc2c(Nc3cc(CC(=O)Nc4cccc(F)c4F)[nH]n3)ncnc2cc1OCCCN1CCC(CCO)CC1`
6.89

Please list pKi recorded for the compound `CCN(CCO)CCCOc1cc2ncnc(Nc3cc(CC(=O)Nc4cccc(F)c4F)[nH]n3)c2cc1OC`
7.35

Please list pKi recorded for the compound `COc1cc2c(Nc3cc(CC(=O)Nc4cccc(F)c4F)[nH]n3)ncnc2cc1OCCCN1CCC[C@H]1CO`
7.35

Please list pKi recorded for the compound `COc1cc2c(Nc3cc(CC(=O)Nc4cccc(F)c4F)[nH]n3)ncnc2cc1OCCCN1CCC(CO)CC1`
6.27

Please list pKi recorded for the compound `O=C(Cc1cc(Nc2ncnc3cc(OCCCN4CCC[C@@H]4CO)ccc23)n[nH]1)Nc1cccc(F)c1F`
8.30

Please list pKi recorded for the compound `COc1cc2c(Nc3cc(CC(=O)Nc4cccc(F)c4F)[nH]n3)ncnc2cc1OCCCN1CCN(CCO)CC1`
7.15

Please list pKi recorded for the compound `COc1cc2c(Nc3cc(CC(=O)Nc4cccc(F)c4F)[nH]n3)ncnc2cc1OCCCN1CCC[C@@H]1CO`
7.38

Please list pKi recorded for the compound `COc1cc2c(Nc3cc(CC(=O)Nc4ccc(F)cc4)[nH]n3)ncnc2cc1OCCCN1CCC(CO)CC1`
5.59

Please list pKi recorded for the compound `COc1cc2c(Nc3cc(CC(=O)Nc4cccc(F)c4)[nH]n3)ncnc2cc1OCCCN(C)CCO`
6.92

====

- procedure.details: P450 isoforms 3A4
- Assay type: ADME
measurement.name: pIC50
Would you please state pIC50, meaning minus log10 of the concentration in mol/L, as a bare number?

Please list pIC50 recorded for the molecule `COc1cc2c(Nc3cc(CC(=O)Nc4cccc(F)c4F)[nH]n3)ncnc2cc1OCCCN(CCO)CC(C)C`
6.40
